- tested_on: T1, Cyno ST2-fc (cyno; human, UniProt A0A2K5UDB8 19-331)
- T1 construct: also called cyno ST2 fused with a human IgG1 Fc tag at the C-terminus
- T1 sequence: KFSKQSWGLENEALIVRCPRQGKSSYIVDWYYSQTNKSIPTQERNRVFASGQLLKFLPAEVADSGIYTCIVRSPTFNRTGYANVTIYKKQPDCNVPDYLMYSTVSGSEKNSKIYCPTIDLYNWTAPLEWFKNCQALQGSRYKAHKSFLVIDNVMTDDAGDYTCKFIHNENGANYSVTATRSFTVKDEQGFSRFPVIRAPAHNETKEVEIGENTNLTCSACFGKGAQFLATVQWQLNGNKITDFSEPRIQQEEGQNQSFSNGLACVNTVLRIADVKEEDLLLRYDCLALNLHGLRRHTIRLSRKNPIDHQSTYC
- protocol_text: ELISA, coated cyno ST2-fc
- Protocol: Cyno ST2-fc was diluted with a coating buffer to 1 μg/mL, added into 96-well plates at 50 μL/well and coated overnight at 4° C. Next day, the coated plates were taken, washed with PB ST for 3 times, and then incubated using a blocking buffer at room temperature for 1 hr. Subsequently, the plates were washed with PBST for 3 times again. […] Afterwards, 2 M sulfuric acid was added to stop reaction; and GD values at 450 nm were read by a microplate reader. […]
recorded_endpoint: Relative activity (%)
Numbers only here, please. The scale is %.

{"columns": ["binder", "Relative activity (%)"],
 "data": [
  ["5888-153H1+L2 (antibody, V domains shown, murine antibody) VH: QVQLQQSGAELVRPGASVTLSCKASGYTFTDYELHWVKQTPVHGLEWIGTIDPETGDTVYNQKFKAKAILTADKSSSTAYMEFRSLTSEDSAVCYCTRAFYNDYDDGFAYWGQGTLVTVSA VL: QIVMTQTPAIMSASPGEKVTMTCSVSSSVSYMHWYQQKSGTSPKRWIYDTSKLASGVPARFSGSGSGTSYSLTINNMEAEDAATYYCQQWNSSPLTFGAGTKLELK", 80.7]
]}

Return the recorded Relative activity (%) value; entry: 5888-116H1+L1 (antibody, V domains shown, murine antibody) VH: QVQLQQSGAELVRPGASVTLSCKASGYTFTDSEMYWVRLTPVHGLEWIGAIDPETGDTAFNQKFKGKATLTADKSSSTAYMELRSLTSEDSVVYYCTRAFDNDNDDGFAYWGQGTLVTVSA VL: QIVMTQSPAIMSASPGEKVTMTCSASSSVNYMHWYQQKSGTSPKRWIYDTSKLASGVPARFSGSGSGTSYSLTISSMEAEDAATYYCQQWSSNPLTFGAGTKLELK
63.7

Indicate its recorded Relative activity (%); the binder in question is 5888-357H+L (antibody, V domains shown, murine antibody) VH: QVQLQQSVTELVRPGASVTLSCKASGYRFTDSEMHWVKQTPVHGLEWIGTIDPETGGTVYNQKFKGKAKLTADRSSSTVSMELRSLTSEDSAVYYCTRAFYNDFDDGFAYWGQGTLVTVSA VL: QIVMTQSPAIMSASPGEKVTLTCSASTSVSYMHWYQQKSGTSPKRWIYDTSKLASGVPARFSGSGSGTSYSLTISSMEAEDAATYYCQQWSSNPLTFGAGTKLELK
127

Taken from patent US12624112.
